B1: TPR t1 (parent)
chain: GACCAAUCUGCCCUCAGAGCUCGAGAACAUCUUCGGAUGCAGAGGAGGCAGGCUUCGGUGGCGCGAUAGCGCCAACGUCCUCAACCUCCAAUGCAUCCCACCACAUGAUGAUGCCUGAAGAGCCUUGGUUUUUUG

Variants of: B1
Test: polymerase ribozyme fitness, log enrichment relative to wild type (log ratio); higher = more active; in vitro selection for triplet polymerase activity
Recorded polymerase ribozyme fitness (log ratio) determines the group label, using class 0 = under -4, class 1 = from -4 up to -1, class 2 = -1 and over

**Q:** # bin lookup: classify G48A by its polymerase ribozyme fitness (log ratio)
**A:** class 2
